Target: human ether-à-go-go-related gene (hERG) potassium channel (human, UniProt Q12809)
Sequence (Q12809 whole entry, looked up): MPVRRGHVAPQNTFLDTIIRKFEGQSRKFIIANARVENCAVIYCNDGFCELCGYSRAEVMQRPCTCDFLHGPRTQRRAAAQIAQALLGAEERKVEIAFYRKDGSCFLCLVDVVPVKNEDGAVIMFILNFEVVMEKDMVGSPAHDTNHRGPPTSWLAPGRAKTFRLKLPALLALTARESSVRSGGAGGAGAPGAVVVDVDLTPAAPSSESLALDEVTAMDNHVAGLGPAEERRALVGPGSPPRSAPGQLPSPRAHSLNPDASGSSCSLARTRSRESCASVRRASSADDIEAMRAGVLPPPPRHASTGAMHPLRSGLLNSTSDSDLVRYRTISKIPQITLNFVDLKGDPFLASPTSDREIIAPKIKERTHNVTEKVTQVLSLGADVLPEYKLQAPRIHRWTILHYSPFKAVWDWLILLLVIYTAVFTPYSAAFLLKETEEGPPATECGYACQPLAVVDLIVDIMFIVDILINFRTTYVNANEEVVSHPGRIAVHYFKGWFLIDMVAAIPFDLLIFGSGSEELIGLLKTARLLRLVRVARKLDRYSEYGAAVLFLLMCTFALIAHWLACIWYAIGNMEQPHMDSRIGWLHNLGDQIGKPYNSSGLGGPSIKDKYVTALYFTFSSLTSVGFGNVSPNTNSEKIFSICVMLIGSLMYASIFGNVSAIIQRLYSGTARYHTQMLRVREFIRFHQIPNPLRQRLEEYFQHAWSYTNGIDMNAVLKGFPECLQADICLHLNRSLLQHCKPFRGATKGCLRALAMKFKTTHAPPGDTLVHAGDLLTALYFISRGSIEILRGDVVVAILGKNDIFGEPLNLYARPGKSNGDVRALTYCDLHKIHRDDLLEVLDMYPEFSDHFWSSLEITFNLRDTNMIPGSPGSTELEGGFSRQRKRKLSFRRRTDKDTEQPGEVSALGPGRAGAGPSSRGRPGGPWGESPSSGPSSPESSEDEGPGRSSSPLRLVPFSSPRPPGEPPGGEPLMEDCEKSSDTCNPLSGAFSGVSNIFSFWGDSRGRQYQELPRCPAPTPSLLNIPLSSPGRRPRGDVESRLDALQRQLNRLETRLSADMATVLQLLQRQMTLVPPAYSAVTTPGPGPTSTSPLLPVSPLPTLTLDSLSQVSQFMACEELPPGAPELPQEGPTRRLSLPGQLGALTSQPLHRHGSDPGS
Assay: primary screen, population patch clamp on CHO cells stably expressing hERG; higher = less effect of the substance
About 2,200 (0.71%) of roughly 310,000 compounds showed an effect of 50% or more. The effect is printed as a negative number. For the sample, strong results were picked, then their nearest neighbours and some compounds at random.
Collected hERG current change (%, negative = inhibition) at 1uM values appear next to each entry.
quantity-kind: hERG current change (%, negative = inhibition) at 1uM (%)

{"molecule": "CC(C)N(C)NC(=S)Nc1ccccc1", "tested-system": "human ether-à-go-go-related gene (hERG) potassium channel (human, UniProt Q12809)", "unit-of-measurement": "%", "reported-result": 8.22}
{"molecule": "COCCn1c(C)cc(C(=O)CSc2nnnn2C2CCCC2)c1C", "tested-system": "human ether-à-go-go-related gene (hERG) potassium channel (human, UniProt Q12809)", "unit-of-measurement": "%", "reported-result": -58.4}
{"molecule": "CCN(CC(=O)Nc1c(F)cccc1F)C(=O)c1ccc(C#N)cc1", "tested-system": "human ether-à-go-go-related gene (hERG) potassium channel (human, UniProt Q12809)", "unit-of-measurement": "%", "reported-result": 8.99}
{"molecule": "COCC(C)n1c(C)cc(C(=O)CSc2nnnn2C2CCCC2)c1C (stereo not shown)", "tested-system": "human ether-à-go-go-related gene (hERG) potassium channel (human, UniProt Q12809)", "unit-of-measurement": "%", "reported-result": 5.12}

====

Target: human ether-à-go-go-related gene (hERG) potassium channel (human, UniProt Q12809)
Assay: primary screen, population patch clamp on CHO cells stably expressing hERG; higher = less effect of the substance
The whole screen tested about 310,000 compounds, of which about 2,200 (0.71%) showed an effect of 50% or more. The effect is printed as a negative number. This is one part of a sample in which strong results are shown more often than they occur.
quantity-kind: hERG current change (%, negative = inhibition) at 1uM (%)

{"molecule": "O=C(COc1ccc2ccccc2c1)N1CCN(Cc2ccncc2)CC1.O=C(O)C(=O)O", "tested-system": "human ether-à-go-go-related gene (hERG) potassium channel (human, UniProt Q12809)", "unit-of-measurement": "%", "reported-result": -14.8}
{"molecule": "O=C(COc1ccc2ccccc2c1)N1CCN(C2CCN(Cc3ccccc3)CC2)CC1", "tested-system": "human ether-à-go-go-related gene (hERG) potassium channel (human, UniProt Q12809)", "unit-of-measurement": "%", "reported-result": -69.6}
{"molecule": "CCCN(CCC)CCCNC(=O)c1cn(CC)c2ccc(S(=O)(=O)N(C)C3CCCCC3)cc2c1=O", "tested-system": "human ether-à-go-go-related gene (hERG) potassium channel (human, UniProt Q12809)", "unit-of-measurement": "%", "reported-result": -46.1}
{"molecule": "CCN(CC)CCNC(=O)c1cn(CC)c2ccc(S(=O)(=O)N(C)C3CCCCC3)cc2c1=O", "tested-system": "human ether-à-go-go-related gene (hERG) potassium channel (human, UniProt Q12809)", "unit-of-measurement": "%", "reported-result": 9.42}
{"molecule": "CN(Cc1ccccn1)C(=O)C1CCC(=O)N(Cc2cccc(F)c2)C1 (stereo not drawn)", "tested-system": "human ether-à-go-go-related gene (hERG) potassium channel (human, UniProt Q12809)", "unit-of-measurement": "%", "reported-result": 8.55}
{"molecule": "CCOc1ccc(Nc2nc(N)nc(CN(C)C3CCCCC3)n2)cc1", "tested-system": "human ether-à-go-go-related gene (hERG) potassium channel (human, UniProt Q12809)", "unit-of-measurement": "%", "reported-result": -58.2}
{"molecule": "Cc1cc(C=C2C(=O)NC(=O)NC2=O)c(C)n1-c1ccc2c(c1)OCO2", "tested-system": "human ether-à-go-go-related gene (hERG) potassium channel (human, UniProt Q12809)", "unit-of-measurement": "%", "reported-result": 13.5}
{"molecule": "O=C(COc1ccc(Cl)cc1)N1CCN(Cc2ccccc2)CC1", "tested-system": "human ether-à-go-go-related gene (hERG) potassium channel (human, UniProt Q12809)", "unit-of-measurement": "%", "reported-result": 3.32}
{"molecule": "CCn1c(SCC(=O)Nc2cc(NC(C)=O)ccc2OC)nnc1-c1cccnc1", "tested-system": "human ether-à-go-go-related gene (hERG) potassium channel (human, UniProt Q12809)", "unit-of-measurement": "%", "reported-result": 7.42}
{"molecule": "O=C(NCc1ccc(C(=O)N2CCC3(CC2)OCCO3)cc1)c1ccc2c(c1)OCO2", "tested-system": "human ether-à-go-go-related gene (hERG) potassium channel (human, UniProt Q12809)", "unit-of-measurement": "%", "reported-result": 5.42}
{"molecule": "CCOC(=O)CCCCC(=O)c1[nH]c(=O)[nH]c1CSc1nnc2c3ccccc3n(C(C)C)c2n1", "tested-system": "human ether-à-go-go-related gene (hERG) potassium channel (human, UniProt Q12809)", "unit-of-measurement": "%", "reported-result": -0.434}
{"molecule": "O=C1CC2(CCN(C(=O)c3ccc(F)cc3)CC2)Oc2ccccc21", "tested-system": "human ether-à-go-go-related gene (hERG) potassium channel (human, UniProt Q12809)", "unit-of-measurement": "%", "reported-result": -42.2}
{"molecule": "Brc1ccccc1OCCCN1CCCCCC1.O=C(O)C(=O)O", "tested-system": "human ether-à-go-go-related gene (hERG) potassium channel (human, UniProt Q12809)", "unit-of-measurement": "%", "reported-result": -59.2}
{"molecule": "COc1ccc(Nc2nc(N)nc(CN(C)C3CCCCC3)n2)cc1", "tested-system": "human ether-à-go-go-related gene (hERG) potassium channel (human, UniProt Q12809)", "unit-of-measurement": "%", "reported-result": -17.9}
{"molecule": "O=C(COc1ccc(Cl)cc1)N1CCN(Cc2ccc([N+](=O)[O-])cc2)CC1.O=C(O)C(=O)O", "tested-system": "human ether-à-go-go-related gene (hERG) potassium channel (human, UniProt Q12809)", "unit-of-measurement": "%", "reported-result": -76.4}
{"molecule": "COc1ccc(Cl)cc1C(=O)N1CCC2(CC1)CC(=O)c1ccccc1O2", "tested-system": "human ether-à-go-go-related gene (hERG) potassium channel (human, UniProt Q12809)", "unit-of-measurement": "%", "reported-result": -71.7}
{"molecule": "COc1cc(CN2CCN(Cc3ccc([N+](=O)[O-])cc3)CC2)c([N+](=O)[O-])cc1OC.O=C(O)C(=O)O", "tested-system": "human ether-à-go-go-related gene (hERG) potassium channel (human, UniProt Q12809)", "unit-of-measurement": "%", "reported-result": -25.4}
{"molecule": "COc1ccccc1OCC(=O)N1CCC2(CC1)CC(=O)c1ccccc1O2", "tested-system": "human ether-à-go-go-related gene (hERG) potassium channel (human, UniProt Q12809)", "unit-of-measurement": "%", "reported-result": -4.96}
{"molecule": "CC(C)NC(=O)NS(=O)(=O)c1cnccc1NC1CC2CCC1C2 (stereo not drawn)", "tested-system": "human ether-à-go-go-related gene (hERG) potassium channel (human, UniProt Q12809)", "unit-of-measurement": "%", "reported-result": 9.06}
{"molecule": "CCc1ccc(-n2nc3cc(C)c(N)cc3n2)cc1", "tested-system": "human ether-à-go-go-related gene (hERG) potassium channel (human, UniProt Q12809)", "unit-of-measurement": "%", "reported-result": 13.3}
{"molecule": "O=C(O)c1ccc(S(=O)(=O)N2CCC3(CC2)CC(=O)c2ccccc2O3)cc1", "tested-system": "human ether-à-go-go-related gene (hERG) potassium channel (human, UniProt Q12809)", "unit-of-measurement": "%", "reported-result": 10.5}
{"molecule": "Cl.O=C(OCCN1CCOCC1)c1ccc2c(c1)OCCO2", "tested-system": "human ether-à-go-go-related gene (hERG) potassium channel (human, UniProt Q12809)", "unit-of-measurement": "%", "reported-result": 8.19}
{"molecule": "CC1CN(C(=O)c2c([N+](=O)[O-])cnn2C)CC(C)O1 (stereo not drawn)", "tested-system": "human ether-à-go-go-related gene (hERG) potassium channel (human, UniProt Q12809)", "unit-of-measurement": "%", "reported-result": 1.78}
{"molecule": "CCN(CC(=O)Nc1ccccc1C(F)(F)F)C(=O)CCS(=O)(=O)c1ccc(Cl)cc1", "tested-system": "human ether-à-go-go-related gene (hERG) potassium channel (human, UniProt Q12809)", "unit-of-measurement": "%", "reported-result": 9.68}
{"molecule": "CC(=O)NS(=O)(=O)c1ccc(NC(=O)C(Sc2ccccc2)c2ccccc2)cc1 (stereo not drawn)", "tested-system": "human ether-à-go-go-related gene (hERG) potassium channel (human, UniProt Q12809)", "unit-of-measurement": "%", "reported-result": 7.09}
{"molecule": "CCn1c(NC(=O)C(C)C)c2ccccc2nc1=O", "tested-system": "human ether-à-go-go-related gene (hERG) potassium channel (human, UniProt Q12809)", "unit-of-measurement": "%", "reported-result": 2.18}
{"molecule": "COc1cccc(CN2CCN(C(=O)COc3ccc4ccccc4c3)CC2)c1", "tested-system": "human ether-à-go-go-related gene (hERG) potassium channel (human, UniProt Q12809)", "unit-of-measurement": "%", "reported-result": 10.5}
